- Target System: Luciferin 4-monooxygenase (Photinus pyralis)
- Procedure Text: Biochemical firefly luciferase enzyme assay for NPC (AID 624030); note: nearly all actives have a fitted effect of over 70% in size
- Protocol Conditions: purified P. pyralis luciferase, luminescence, 5 min; series mostly up to 58.6 µM
Results filed as inconclusive are left out. Active and inactive are the calls of the source. Calls come from the whole dose curve; as a rule, active = well fitted inhibition curve with a large enough effect; inconclusive = small, poorly fitted or top-dose-only effect; inactive = flat fitted curve, though single readings scatter.
Your answer must be one of the following: active, inactive

Some solved entries appear below for comparison.
C[Se]CC[C@H](N)C(=O)O :: inactive
NC(=O)Oc1ccc(Cc2ccccc2)cc1 :: inactive
CCCCC :: inactive
O=[n+]1ccn([O-])c2ccccc21 :: inactive
Cc1ncc(C[n+]2csc(CCOP(=O)(O)OP(=O)(O)O)c2C)c(N)n1 :: inactive

Request: GET /call?item= CC(CC=O)CCCC(C)(C)O (configuration not stated) returns the recorded outcome of this test.
Result: inactive

Request: GET /call?item= CCOc1cc(-c2nccc3cc(OC)c(OC)cc23)cc(OCC)c1OCC returns the recorded outcome of this test.
Result: inactive

Request: GET /call?item= CO/N=C(\C(=O)N[C@@H]1C(=O)N2C(C(=O)[O-])=C(C[n+]3cccc4c3CCC4)CS[C@H]12)c1csc(N)n1 returns the recorded outcome of this test.
Result: inactive

Request: GET /call?item= OCC(O)CO returns the recorded outcome of this test.
Result: inactive

Request: GET /call?item= CC(C)Cc1ccc([C@@H](C)C(=O)NS(C)(=O)=O)cc1 returns the recorded outcome of this test.
Result: inactive

Request: GET /call?item= CC(=O)Nc1ccc(OC(C)=O)cc1 returns the recorded outcome of this test.
Result: inactive

Request: GET /call?item= O=P(O)(O)CP(=O)(O)O returns the recorded outcome of this test.
Result: inactive

Request: GET /call?item= COc1ccc2nc(NC(=O)Nc3ccccc3)sc2c1 returns the recorded outcome of this test.
Result: active

Request: GET /call?item= NC(=O)C1c2ccccc2CCc2ccccc21 returns the recorded outcome of this test.
Result: inactive

Request: GET /call?item= CCN(CC)C(=O)c1cccnc1 returns the recorded outcome of this test.
Result: inactive

Request: GET /call?item= O=S(=O)(O)CCCS(=O)(=O)O returns the recorded outcome of this test.
Result: inactive

Request: GET /call?item= OCl returns the recorded outcome of this test.
Result: inactive

Request: GET /call?item= CCCCCCCCCCCCCCCCCC[N+](C)(C)CCC[Si](OC)(OC)OC returns the recorded outcome of this test.
Result: inactive

Request: GET /call?item= CCCCCCCCCCCCCC(=O)OCC(COP(=O)([O-])OCC[N+](C)(C)C)OC(=O)CCCCCCCCCCCCC (configuration not stated) returns the recorded outcome of this test.
Result: inactive

Request: GET /call?item= O=C1[O][Bi][O]c2ccccc21 returns the recorded outcome of this test.
Result: inactive

Request: GET /call?item= C=CCN1CCCC1CNC(=O)c1cc(S(N)(=O)=O)cc(OC)c1OC (configuration not stated) returns the recorded outcome of this test.
Result: inactive

Request: GET /call?item= CN1CCCC(CN2c3ccccc3Sc3ccccc32)C1 (configuration not stated) returns the recorded outcome of this test.
Result: inactive

Request: GET /call?item= Cc1ccccn1 returns the recorded outcome of this test.
Result: inactive
